System: Kleb. pneumo. SK 4200
A collection of compounds and their measured MIC

# Compound, MIC (mg/L)
rows = [
    ("O=C(O)C1=C(CSc2nnnn2CCNS(=O)(=O)O)CSC2C(NC(=O)[C@H](O)c3ccccc3)C(=O)N12 (stereo partly shown) [Compound 1]", 1.6),
    ("O=C(Cc1cccs1)NC1C(=O)N2C(C(=O)O)=C(CSc3nnnn3CCNS(=O)(=O)O)CSC12 (stereo not shown) [Compound 2]", 3.1),
    ("O=C(CSC(F)(F)F)NC1C(=O)N2C(C(=O)O)=C(CSc3nnnn3CCNS(=O)(=O)O)CSC12 (stereo not shown) [Compound 4]", 0.8),
    ("O=C(Cn1cnnn1)NC1C(=O)N2C(C(=O)O)=C(CSc3nnnn3CCNS(=O)(=O)O)CSC12 (stereo not shown) [Compound 3]", 0.8),
]
